Cited source: patent US10487080B2

target: αvβ5 (Homo sapiens, UniProt P06756+P18084); construct: expressed in transfected cells; host or cells: K562-αvβ5; test: Cell Adhesion Assay αvβ5; format: cell-based; details: K562-αvβ5 cells, ligand Vitronectin, 2 mM MgCl2; read-out: mean affinity (pIC50) αvβ5 (converted)
Sequence (P06756 31-889 limits assumed): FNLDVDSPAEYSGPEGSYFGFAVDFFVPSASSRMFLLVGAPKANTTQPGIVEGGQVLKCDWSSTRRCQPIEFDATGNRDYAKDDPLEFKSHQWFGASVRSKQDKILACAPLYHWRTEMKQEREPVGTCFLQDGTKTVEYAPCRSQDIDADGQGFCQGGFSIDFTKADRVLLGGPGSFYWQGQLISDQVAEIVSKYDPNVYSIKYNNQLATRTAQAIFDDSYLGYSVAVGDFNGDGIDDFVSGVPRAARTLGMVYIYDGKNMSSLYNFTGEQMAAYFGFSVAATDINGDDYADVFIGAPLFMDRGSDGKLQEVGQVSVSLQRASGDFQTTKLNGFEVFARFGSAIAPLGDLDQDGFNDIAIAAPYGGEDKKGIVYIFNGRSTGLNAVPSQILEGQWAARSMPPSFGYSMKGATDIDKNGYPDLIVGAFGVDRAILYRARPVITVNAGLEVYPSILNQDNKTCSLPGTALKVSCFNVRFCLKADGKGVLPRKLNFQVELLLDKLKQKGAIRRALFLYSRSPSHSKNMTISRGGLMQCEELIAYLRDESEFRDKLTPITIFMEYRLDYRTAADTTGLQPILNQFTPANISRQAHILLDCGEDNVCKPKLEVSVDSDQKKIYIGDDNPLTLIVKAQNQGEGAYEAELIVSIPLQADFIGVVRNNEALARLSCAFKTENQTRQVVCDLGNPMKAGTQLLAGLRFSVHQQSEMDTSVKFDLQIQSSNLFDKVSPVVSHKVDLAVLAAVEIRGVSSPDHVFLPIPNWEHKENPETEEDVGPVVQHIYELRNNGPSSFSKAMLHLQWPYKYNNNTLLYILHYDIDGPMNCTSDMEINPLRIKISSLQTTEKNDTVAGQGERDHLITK
Sequence (P06756 891-1048 partner limits assumed): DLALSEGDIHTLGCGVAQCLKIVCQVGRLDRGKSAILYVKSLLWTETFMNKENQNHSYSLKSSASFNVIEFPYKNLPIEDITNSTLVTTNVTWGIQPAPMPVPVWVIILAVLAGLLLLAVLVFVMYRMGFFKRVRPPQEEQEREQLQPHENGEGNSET
Sequence (P18084 24-799): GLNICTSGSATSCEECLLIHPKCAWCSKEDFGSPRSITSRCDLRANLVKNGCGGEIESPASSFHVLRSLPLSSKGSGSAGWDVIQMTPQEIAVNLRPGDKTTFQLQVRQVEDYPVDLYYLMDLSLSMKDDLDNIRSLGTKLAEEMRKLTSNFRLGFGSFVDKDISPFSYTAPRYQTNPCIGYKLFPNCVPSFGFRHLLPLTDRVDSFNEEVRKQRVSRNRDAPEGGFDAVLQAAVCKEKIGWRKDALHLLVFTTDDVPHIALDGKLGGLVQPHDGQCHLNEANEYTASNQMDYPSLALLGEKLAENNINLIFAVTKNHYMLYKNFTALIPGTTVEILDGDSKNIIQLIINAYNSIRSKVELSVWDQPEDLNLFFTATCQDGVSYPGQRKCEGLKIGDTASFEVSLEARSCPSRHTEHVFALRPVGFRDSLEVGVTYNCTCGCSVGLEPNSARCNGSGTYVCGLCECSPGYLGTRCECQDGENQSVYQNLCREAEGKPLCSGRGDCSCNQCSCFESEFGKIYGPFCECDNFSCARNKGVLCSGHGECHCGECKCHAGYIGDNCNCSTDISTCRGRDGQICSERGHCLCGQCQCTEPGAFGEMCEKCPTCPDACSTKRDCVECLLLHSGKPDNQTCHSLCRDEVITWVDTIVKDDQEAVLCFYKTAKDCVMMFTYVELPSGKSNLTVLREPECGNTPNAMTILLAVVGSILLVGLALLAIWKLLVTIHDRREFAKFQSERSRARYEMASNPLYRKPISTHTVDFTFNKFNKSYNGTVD
For each record, write down the corresponding IC50.
Record the value in nM, omitting the unit from your answer.

stdin: Determine from records and report IC50 for "COCCOc1cccc([C@H](CC(=O)O)CN2CC[C@@H](CCc3ccc4c(n3)NCCC4)C2)c1"
stdout: 10

stdin: Determine from records and report IC50 for "COC[C@@H](C)Oc1cccc([C@H](CC(=O)O)CN2CC[C@@H](CCc3ccc4c(n3)NCCC4)C2)c1"
stdout: 63.1

stdin: Determine from records and report IC50 for "CO[C@@H](C)COc1cccc([C@H](CC(=O)O)CN2CC[C@@H](CCc3ccc4c(n3)NCCC4)C2)c1"
stdout: 15.8

stdin: Determine from records and report IC50 for "COCC(C)(C)Oc1cccc([C@H](CC(=O)O)CN2CC[C@@H](CCc3ccc4c(n3)NCCC4)C2)c1"
stdout: 63.1

stdin: Determine from records and report IC50 for "O=C(O)C[C@H](CN1CC[C@@H](CCc2ccc3c(n2)NCCC3)C1)c1cccc(OC[C@H]2CCCO2)c1"
stdout: 39.8

stdin: Determine from records and report IC50 for "CC(C)OCCOc1cccc([C@H](CC(=O)O)CN2CC[C@@H](CCc3ccc4c(n3)NCCC4)C2)c1"
stdout: 31.6

stdin: Determine from records and report IC50 for "COCCOc1cc(OCCOC)cc([C@H](CC(=O)O)CN2CC[C@@H](CCc3ccc4c(n3)NCCC4)C2)c1"
stdout: 31.6

====

target: αvβ1 (Homo sapiens, UniProt P05556+P06756); construct: host or cells: A549-αvβ1; test: Cell Adhesion Assay αvβ1; type: cell-based; conditions: A549-αvβ1 cells, ligand LAP-b1, 2 mM MgCl2; read-out: mean affinity (pIC50) αvβ1 (converted)
Sequence (P06756 31-889 limits assumed): as the sequence (P06756 31-889 limits assumed) above
Sequence (P06756 891-1048 partner limits assumed): as the sequence (P06756 891-1048 partner limits assumed) above
Sequence (P05556 21-798): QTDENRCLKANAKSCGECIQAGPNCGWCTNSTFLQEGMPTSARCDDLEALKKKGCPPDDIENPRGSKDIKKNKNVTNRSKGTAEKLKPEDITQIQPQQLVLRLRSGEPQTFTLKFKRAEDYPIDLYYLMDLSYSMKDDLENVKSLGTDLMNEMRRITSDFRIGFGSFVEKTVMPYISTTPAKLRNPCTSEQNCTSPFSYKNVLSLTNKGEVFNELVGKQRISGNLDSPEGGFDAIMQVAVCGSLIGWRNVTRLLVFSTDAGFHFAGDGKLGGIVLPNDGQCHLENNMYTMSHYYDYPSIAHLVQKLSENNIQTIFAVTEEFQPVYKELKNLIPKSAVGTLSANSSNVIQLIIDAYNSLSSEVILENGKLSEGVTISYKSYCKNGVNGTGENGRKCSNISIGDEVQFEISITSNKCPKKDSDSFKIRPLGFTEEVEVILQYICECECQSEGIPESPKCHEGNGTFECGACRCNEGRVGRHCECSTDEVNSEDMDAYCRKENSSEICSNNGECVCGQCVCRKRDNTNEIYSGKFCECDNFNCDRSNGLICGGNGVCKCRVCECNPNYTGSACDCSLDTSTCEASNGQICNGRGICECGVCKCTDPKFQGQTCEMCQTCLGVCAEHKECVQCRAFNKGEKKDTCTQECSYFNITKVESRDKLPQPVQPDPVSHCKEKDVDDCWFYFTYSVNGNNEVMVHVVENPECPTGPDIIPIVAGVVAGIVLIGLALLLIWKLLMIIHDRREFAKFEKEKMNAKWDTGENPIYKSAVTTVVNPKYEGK
The label is yes for IC50 below 0.2 µM and no for IC50 equal to or exceeding 0.2 µM.

stdin: Strictly below 0.2 µM: is that where IC50 of "O=C(O)C[C@H](CN1CC[C@@H](CCc2ccc3c(n2)NCCC3)C1)c1cccc(OC[C@H]2CCCO2)c1" sits?
stdout: no

stdin: Strictly below 0.2 µM: is that where IC50 of "CO[C@@H](C)COc1cccc([C@H](CC(=O)O)CN2CC[C@@H](CCc3ccc4c(n3)NCCC4)C2)c1" sits?
stdout: yes

stdin: Strictly below 0.2 µM: is that where IC50 of "CO[C@H](C)COc1cccc([C@H](CC(=O)O)CN2CC[C@@H](CCc3ccc4c(n3)NCCC4)C2)c1" sits?
stdout: yes

stdin: Strictly below 0.2 µM: is that where IC50 of "COCC(C)(C)Oc1cccc([C@H](CC(=O)O)CN2CC[C@@H](CCc3ccc4c(n3)NCCC4)C2)c1" sits?
stdout: yes

stdin: Strictly below 0.2 µM: is that where IC50 of "COC(C)(C)COc1cccc([C@H](CC(=O)O)CN2CC[C@@H](CCc3ccc4c(n3)NCCC4)C2)c1" sits?
stdout: yes

stdin: Strictly below 0.2 µM: is that where IC50 of COC[C@H](C)Oc1cccc(C(CC(=O)O)CN2CC[C@@H](CCc3ccc4c(n3)NCCC4)C2)c1 (single isomer, unassigned) sits?
stdout: no

stdin: Strictly below 0.2 µM: is that where IC50 of "COCCOc1cccc([C@H](CC(=O)O)CN2CC[C@@H](CCc3ccc4c(n3)NCCC4)C2)c1" sits?
stdout: yes

stdin: Strictly below 0.2 µM: is that where IC50 of "O=C(O)C[C@H](CN1CC[C@@H](CCc2ccc3c(n2)NCCC3)C1)c1cccc(OC[C@@H]2CCCO2)c1" sits?
stdout: no
